Origin of measurements: the supplement of paper PMC7125110

B1: glmS ribozyme (parent)
chain: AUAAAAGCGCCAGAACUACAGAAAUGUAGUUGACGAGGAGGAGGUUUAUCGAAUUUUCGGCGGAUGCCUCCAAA

# Variants of: B1
# assay.comment: self-cleavage kobs at 2500 uM GlcN6P; higher = faster cleavage; RNA array
# applied.conditions: with glucosamine-6-phosphate
Variants at the floor of the assay were thinned out.
recorded.endpoint: self-cleavage kobs at 2500 uM GlcN6P (s⁻¹)
Answers are plain numbers, in s⁻¹.

Observe how each entry below is paired with its result.
   variant_string       val
0       U56G C67G  0.000582
1  G40C A52G U55G   4.2e-05
2  A14C G29C A64G  5.47e-05

List self-cleavage kobs at 2500 uM GlcN6P for every entry below, keeping the order given.
1. A39C U45A
2. A14U U30A
3. A14U A15C A33U U49C C50G U69A
4. U57C C68U
5. G13A U55C
6. A39C G40C

Result string:
[0.00392, 0.000564, 0.000218, "3.96e-05", 0.000191, "8.75e-05"]

# per-item lookup of self-cleavage kobs at 2500 uM GlcN6P; items listed below
1. A14U G21A U56G
2. U56G C71G
3. A42U U46G
4. G40A U47C U54C
5. A15U G32A
6. C50G U65C C67U
7. A12U A15U
8. A15U U30C

Result string:
0.00645
0.000512
3.86e-05
0.00058
0.000388
0.000106
0.00905
6.99e-05

Parameter requested: self-cleavage kobs at 2500 uM GlcN6P. Apply to each item below.
1. C16G U46C
2. U55A C67A C68U

Result string:
1. 0.000169
2. 0.000218

Please state, for each entry, its recorded self-cleavage kobs at 2500 uM GlcN6P.
1. G40C U47G
2. A12U C50A
3. A33C U54A

Result string:
0.00041
6.47e-05
0.000323
